System: RXF 393 renal
method_summary: NCI-60 one-dose screen, 48 h (100 = growth as untreated, 0 = no growth, -100 = all killed)
conditions: 10 µM unless noted
This is part of a sample that, as a whole, favours compounds with a hit. Of some 83,000 tested, about 20% had one in any assay.
metric: growth (%)

molecule="O=C1CN2CCC1C/C2=C\\c1ccnc2c(Cl)cccc12 (stereo not given)" metric=growth obs_value=107
molecule=CC(C)N1CCN(c2ccc(OC[C@H]3CO[C@](Cn4cncn4)(c4ccc(Cl)cc4Cl)O3)cc2)CC1 metric=growth obs_value=74.7
molecule=CCOC(=O)c1c(Cl)c2c(n1Cc1ccc(OC)cc1)-c1oncc1CCC2 metric=growth obs_value=80.5
molecule=O=c1[nH]c(-c2ccccn2)nc2sc3c(c12)CCCCCC3 metric=growth obs_value=50.7
molecule=Nc1nc(N)c(C=Nc2ccc(Br)cc2)c(Nc2ccc(Br)cc2)n1 metric=growth obs_value=78.9

----------
System: 786-0 renal
method_summary: NCI-60 one-dose screen, 48 h (100 = growth as untreated, 0 = no growth, -100 = all killed)
conditions: 10 µM unless noted
Compounds without any hit were thinned out: in the full panel of roughly 83,000, 20% have a hit.
metric: growth (%)

compound=CC(=O)Nc1ccc(Sc2ccc([N+](=O)[O-])o2)cc1 metric=growth obs_value=50.7
compound=CNc1ccc(Br)cc1-c1n[nH]c(=O)[nH]c1=O metric=growth obs_value=95
compound=Cc1nc(-c2ccccc2)cc2c(O)c(C(=O)N/N=C/Cc3ccccc3)[nH]c(=O)c12 metric=growth obs_value=103
compound=Cc1ccc2c(N/N=C\c3ccco3)cc(C)nc2n1 metric=growth obs_value=49.2
compound="CCCCC1COc2cccc3c(SCC(=O)N(C)c4cccc5ccccc45)cc[n+]1c23 (stereo not given)" metric=growth obs_value=98.3
compound=O=C1Nc2ccc(Cl)cc2/C1=N/N=C(c1ccccc1)c1ccccc1 metric=growth obs_value=102
compound="CCOC(=O)C1=C(C)N2C(=NC3=C(CCCC/C3=C\\c3ccccc3)C2c2ccccc2)S1 (stereo not given)" metric=growth obs_value=96.6
compound=Cc1cc(NS(=O)(=O)c2ccc(NC(=O)COc3ccc(-c4cc5ccccc5[nH]4)cc3)cc2)no1 metric=growth obs_value=2.3
compound=Cc1cc(=O)oc2c1ccc1oc(C(=O)c3ccccc3)c(C)c12 metric=growth obs_value=99.5
compound=COc1nc2c(cc1S(=O)(=O)c1ccccc1)CCc1c-2cnn1-c1ccccc1Cl metric=growth obs_value=51.6
compound=Cl.Fc1c[c-]c(-c2ccccn2)c(F)c1.[Pt].c1ccc([PH+](CC[PH+](c2ccccc2)c2ccccc2)c2ccccc2)cc1 metric=growth obs_value=-79.4
compound="CC[Si](CC)(CC)OC1[C@@H](O[Si](CC)(CC)CC)[C@@H](CNC(=O)NC)O[C@H]1n1cnc2c(NC(=O)Nc3ccccc3)ncnc21 (stereo not given in full)" metric=growth obs_value=89.6
compound=COc1ccc(OC2=CC(=O)c3ccc(C)nc3C2=O)cc1 metric=growth obs_value=109
compound=CCOC(=O)c1c(Cl)c2c(n1Cc1cc(OC)cc(OC)c1)-c1oncc1CCC2 metric=growth obs_value=43
compound=CCCN1CCN(c2ccc3nc(-c4ccc5nc(-c6ccc(C(F)(F)F)cc6)[nH]c5c4)[nH]c3c2)CC1 metric=growth obs_value=-90.2
compound="COc1cc(C2=NN(c3ccc(S(N)(=O)=O)cc3)C(c3ccc(Cl)cc3)C2)cc(OC)c1OC (stereo not given)" metric=growth obs_value=66.5
compound=O=C1c2cc(S(=O)(=O)O)ccc2C(=O)c2c1cccc2[N+](=O)[O-] metric=growth obs_value=101
compound=COc1ccc(-n2ncc3c2ccc2cc(S(=O)(=O)c4ccccc4)c(=O)n(C)c23)cc1 metric=growth obs_value=82.3
compound=CCCCCCCCCCCCCCCC[N+]1(C)CCOCC1 metric=growth obs_value=5.35
compound=COc1ccc(OC)c(/C=C2\Oc3cc(O)ccc3C2=O)c1 metric=growth obs_value=89.5
compound="CCCCCn1c(=N)n(CC(O)COc2cccc(C)c2)c2ccccc21 (stereo not given)" metric=growth obs_value=32.6
compound=COc1ccc(-c2c(-c3cc4c(c(OC)c3OC)OCO4)noc2N)cc1 metric=growth obs_value=38.4
compound=COc1ccc(/C=C2\CN(Cc3cn(CCCNc4ccnc5cc(Cl)ccc45)nn3)C/C(=C\c3ccc(OC)cc3)C2=O)cc1 metric=growth obs_value=76.3
compound=CCSc1nnc2c3cc(Br)ccc3n(C)c2n1 metric=growth obs_value=102
compound=CCCCCCCCCCCCCCn1c2ccccc2c2c3c(c4c5cc(OC)ccc5oc4c21)C(=O)NC3=O metric=growth obs_value=103
compound="CCC12CCC3c4ccc(O)cc4CCC3C1CC(O)C2O (stereo not given)" metric=growth obs_value=92.5
compound=Cc1nc(NC(=O)COc2cccc(/C=C3\COc4ccccc4C3=O)c2)sc1C metric=growth obs_value=72.1
compound="Oc1ccc2ccccc2c1C1NN=C(c2ccccc2)S1 (stereo not given)" metric=growth obs_value=6.82
compound="C=C(C)COC(=O)c1ccccc1C(=O)OCC1(C)CO1 (stereo not given)" metric=growth obs_value=105
compound=COc1ccc(-c2c3c(N)c4c(nc3nc3c2c(C)nn3-c2ccccc2)CCCCC4)cc1 metric=growth obs_value=79.2
compound="COc1cc(/C=N/NC(=O)c2cnn3c2NC(c2ccccc2)C3)cc(OC)c1OC (stereo not given)" metric=growth obs_value=88
compound=CCN1CCN(c2ccc(Nc3ncc4ccc5ncn(C(C)C)c5c4n3)nc2)CC1 metric=growth obs_value=9.21
compound=CCCCCCCCCCCCCCNc1nc(CO)ncc1-c1ccc(C(F)(F)F)cc1 metric=growth obs_value=97.3
compound=Nc1c(Br)cc(Br)cc1-c1n[nH]c(=O)[nH]c1=O metric=growth obs_value=100
compound=Nc1cc2[nH]c(=O)c3ccccc3c2cc1Br metric=growth obs_value=104
compound=CC(C)N1CCN(c2ccc(OC[C@H]3CO[C@](Cn4cncn4)(c4ccc(Cl)cc4Cl)O3)cc2)CC1 metric=growth obs_value=99.2
compound=CCCCC(CCCC)(S(=O)(=O)CC)S(=O)(=O)CC metric=growth obs_value=98.6
compound=O=C1NC(=S)S/C1=C\c1cccc([N+](=O)[O-])c1 metric=growth obs_value=91.5
compound=Cc1ccc2c(c1)c(Sc1ccc(C(=O)NO)cc1)c1n2CN(C)CC1 metric=growth obs_value=37.7
compound="CC(C)(C)[Si](C)(C)OC1[C@@H](COC(=O)NC(=O)CCl)O[C@@H](n2cnc3c(N)ncnc32)[C@H]1O[Si](C)(C)C(C)(C)C (stereo not given in full)" metric=growth obs_value=4.11
